Origin of the recorded values: patent US20130224224A1

# test.target: T1, human CX3CR1 (human, UniProt P49238 1-355)
# T1 construct: overexpressed on CHO, BA/F3 or HEK293T cells; also called huCX3CR1; hCX3CR1
# T1 sequence: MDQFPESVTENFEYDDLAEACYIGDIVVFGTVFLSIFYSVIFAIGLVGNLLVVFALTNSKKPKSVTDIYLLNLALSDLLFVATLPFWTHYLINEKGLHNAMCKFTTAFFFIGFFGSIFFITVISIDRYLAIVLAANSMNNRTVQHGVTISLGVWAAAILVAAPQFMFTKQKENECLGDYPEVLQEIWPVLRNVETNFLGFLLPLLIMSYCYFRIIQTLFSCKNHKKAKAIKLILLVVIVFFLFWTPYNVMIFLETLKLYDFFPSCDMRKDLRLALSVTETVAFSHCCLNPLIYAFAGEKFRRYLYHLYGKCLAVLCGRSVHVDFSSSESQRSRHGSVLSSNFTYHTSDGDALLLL
# experimental.protocol: A647-fractalkine competition FACS, HEK293T human CX3CR1
reported.endpoint: pIC50
// field semantics: pIC50 = negative decimal log of concentration (mol/L)

Below are worked cases with known answers.
binder	pIC50
CX3CR1BII016 (VHH, expressed in E. coli as described for the monovalent VHHs) EVQLVESGGGSVQAGESLRLSCAASGSIFSSNAMAWYRQAPGKQRDLVAVINSVGITKYADSVKGRFTISGDNAKNTVYLQMNSLKPEDTAVYYCTSDARRGWDTRYWGQGTQVTVSSGGGGSGGGGSGGGGSGGGGSGGGGSGGGGSGGGGSEVQLVESGGGSVQAGESLRLSCAASGSIFSSNAMAWYRQAPGKQRDLVAVINSVGITKYADSVKGRFTISGDNAKNTVYLQMNSLKPEDTAVYYCTSDARRGWDTRYWGQGTQVTVSS	9.72
CX3CR1BII020 (VHH, expressed in E. coli as described for the monovalent VHHs) EVQLVESGGGSVQAGESLRLSCAASGSIFSSNAMAWYRQAPGKQRDLVAGINSVGITKYADSVKGRFTISRDNAKNTAYLQMNSLKPEDTAVYYCTSDPRRGWDTRYWGQGTLVTVSSGGGGSGGGGSGGGGSGGGGSGGGGSGGGGSGGGGSEVQLVESGGGSVQAGESLRLSCAASGSIFSSNAMAWYRQAPGKQRDLVAGINSVGITKYADSVKGRFTISRDNAKNTAYLQMNSLKPEDTAVYYCTSDPRRGWDTRYWGQGTLVTVSS	9.66

Now look at this entry.
Quick check: pIC50 of CX3CR1BII017 (VHH, expressed in E. coli as described for the monovalent VHHs) EVQLVESGGGSVQAGESLRLSCAASGSIFSSNAMAWYRQAPPGKQRDLVALINSVGITKYADSVKGRFTISSDNAKNTVYLEMNSLKPEDTAVYYCTSDGRRGWDTRYWGQGTQVTVSSGGGGSGGGGSGGGGSGGGGSGGGGSGGGGSGGGGSEVQLVESGGGSVQAGESLRLSCAASGSIFSSNAMAWYRQAPPGKQRDLVALINSVGITKYADSVKGRFTISSDNAKNTVYLEMNSLKPEDTAVYYCTSDGRRGWDTRYWGQGTQVTVSS ?
9.51
